- Tested on: Setaria viridis (SETVI)
- experiment: Herbicidal post-emergence action (D), 320 g/ha
- Assay type: in vivo
- condition description: ca. 3 weeks
measured property: herbicidal effect SETVI (%)
The figure you give is taken to be in %; do not add the unit.

Answered examples (3):
smiles_record=Cc1ccccc1-c1nc2ncsc2cc1C endpoint_result=80
smiles_record=Fc1cccc(F)c1-c1nc2ncsc2cc1Cl endpoint_result=90
smiles_record=Cc1cc2scnc2nc1-c1ccccc1F endpoint_result=90

Problem: Supply reported herbicidal effect SETVI belonging to this molecule: Fc1ccccc1-c1nc2ncsc2cc1C1CC1
Solution: 80

Problem: Supply reported herbicidal effect SETVI belonging to this molecule: CCc1cc2scnc2nc1-c1ccccc1
Solution: 80

Problem: Supply reported herbicidal effect SETVI belonging to this molecule: Cc1cscc1-c1nc2ncsc2cc1C
Solution: 80
